Here, each record is paired with measured relative affinity of tieing (ARL), Progestogen data.
TESTED ON: Progestogen receptor of the uterus of rabbits (Oryctolagus cuniculus)
Construct: The uterus was removed, weighed and homogenized at 0° C; from tissue; host or cells: rabbit uterus, 105,000 g supernatant (estradiol-primed immature rabbits)
Sequence (P06186 whole entry): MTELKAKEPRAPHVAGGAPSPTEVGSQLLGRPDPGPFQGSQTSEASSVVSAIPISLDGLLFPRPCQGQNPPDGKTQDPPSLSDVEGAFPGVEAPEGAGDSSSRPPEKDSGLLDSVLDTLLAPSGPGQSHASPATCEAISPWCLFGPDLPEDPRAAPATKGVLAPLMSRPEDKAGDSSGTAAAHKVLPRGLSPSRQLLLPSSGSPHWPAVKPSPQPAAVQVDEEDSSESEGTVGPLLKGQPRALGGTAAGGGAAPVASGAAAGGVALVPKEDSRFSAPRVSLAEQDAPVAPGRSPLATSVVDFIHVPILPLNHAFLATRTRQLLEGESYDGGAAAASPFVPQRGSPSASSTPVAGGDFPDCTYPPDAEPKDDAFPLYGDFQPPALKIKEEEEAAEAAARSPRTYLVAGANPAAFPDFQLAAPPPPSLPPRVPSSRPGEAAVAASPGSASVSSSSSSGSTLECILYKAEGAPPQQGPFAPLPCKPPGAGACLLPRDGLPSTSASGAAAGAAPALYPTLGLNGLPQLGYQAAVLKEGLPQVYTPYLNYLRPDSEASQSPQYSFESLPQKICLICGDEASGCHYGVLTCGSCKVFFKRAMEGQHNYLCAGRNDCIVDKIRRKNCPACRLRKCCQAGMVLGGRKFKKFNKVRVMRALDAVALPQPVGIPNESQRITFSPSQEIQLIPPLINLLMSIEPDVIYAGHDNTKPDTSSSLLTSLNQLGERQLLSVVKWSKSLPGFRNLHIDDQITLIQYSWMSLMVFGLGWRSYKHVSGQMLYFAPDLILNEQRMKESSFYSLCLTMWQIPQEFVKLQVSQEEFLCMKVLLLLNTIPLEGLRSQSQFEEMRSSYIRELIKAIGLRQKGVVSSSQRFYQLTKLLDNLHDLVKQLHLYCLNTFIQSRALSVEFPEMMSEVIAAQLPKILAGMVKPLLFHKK
TEST PROTOCOL: Progestogen receptor binding (displacement of tritiated product R)
Parameters: species or system rabbit
EXPERIMENTAL CONDITIONS: incubation 2 H at 0° C.
Answer as a number with no unit attached.

Sample answers from the record:
CC#C[C@]1(O)CC[C@H]2[C@@H]3CCC4=CC(=O)[C@@H](C)CC4=C3[C@@H](c3ccc(N(C)C)cc3)C[C@@]21C    44
CC#C[C@]1(OC(C)=O)CC[C@H]2[C@@H]3CCc4cc(O)ccc4[C@H]3[C@@H](c3ccc(N(C)C)cc3)C[C@@]21C    5
CC#C[C@]1(O)CC[C@H]2[C@@H]3CCC4=C(CCC(=O)C4)[C@H]3[C@@H](c3ccc(N(C)C)cc3)C[C@@]21C    27
CC#C[C@]1(O)CC[C@H]2[C@@H]3CCC4=CC(=O)[C@H](C)CC4=C3[C@@H](c3ccc(N(C)C)cc3)C[C@@]21C    40

// returns reported relative affinity of tieing (ARL), Progestogen for input `CC#C[C@]1(O)CC[C@H]2[C@@H]3CCC4=CC(=O)C(C)(C)CC4=C3[C@@H](c3ccc(N(C)C)cc3)C[C@@]21C`
4
